Origin of measurements: patent US12365658B2

Experiment: Bidirectional permeability assay (Caco-2 cells)
Format: in vitro ADME
Conditions: human, Caco-2, pH 7.4, absorptive direction (A2B), 10 μM in FaSSIF buffer
Method: Bidirectional Permeability Assay (Caco-2 Cells) […] On the day of assay, Caco-2 monolayers were washed twice with transport buffer (HBSS, pH 7.4) and pre-incubated for 30 min (37° C., 5% CO2, 95% RH) in an incubator. The electrical resistance of the monolayers was measured with a Millicell®-ERS system. […] The mean apparent permeability (Papp, ×10^−6 cm/sec) of the test compounds, atenolol, propranolol and digoxin were calculated as follows: […]
Measured property: Papp A→B at 120 min, 10 μM (×10⁻⁶ cm/s)
Numeric answer only, unit ×10⁻⁶ cm/s assumed.

Input: Would you kindly share the measured Papp A→B at 120 min, 10 μM for CCCCC1CN(c2ccc(F)cc2)c2cc(SCC)c(OCC(O)C(=O)O)cc2S(=O)(=O)N1C (stereo not shown) [Example 33] ?
Output: 2.2

Input: Repeat for the following molecule: CCCCC1CN(c2ccccc2)c2cc(SC)c(OCC(C)(C)C(=O)O)cc2S(=O)(=O)N1C (single isomer, unassigned) [2, enantiomer 2]
Output: 13.2

Input: Try the molecule CCCCC1CN(c2ccccc2)c2cc(SC)c(OCC3(C(=O)O)CC3)cc2S(=O)(=O)N1C (stereo not shown) [Example 3]
Output: 20.8

Input: Let us now turn to CCCCC1CN(c2ccccc2)c2cc(SCC)c(OCC3(C(=O)O)CC3)cc2S(=O)(=O)N1C (single isomer, unassigned) [8, enantiomer 1]
Output: 15.8

Input: Same question, CCCCC1CN(c2ccc(F)cc2)c2cc(SC)c(OCC(C)(C)C(=O)O)cc2S(=O)(=O)N1C (stereo not shown) [Example 13] this time
Output: 10.8

Input: Do the same for CCCCC1CN(c2ccccc2)c2cc(SCC)c(OCC(C)(C)C(=O)O)cc2S(=O)(=O)N1C (single isomer, unassigned) [6, enantiomer 2] please
Output: 8.6

Input: Repeat for the following molecule: CCCCC1CN(c2ccccc2)c2cc(SC)c(OCC(C)(OC)C(=O)O)cc2S(=O)(=O)N1C (stereo not shown) [Example 22]
Output: 11.7
